Reference source for all entries: the RNAGym collection of RNA variant scans (doi:10.1126/science.aae0568)

B1: tRNA (parent)
chain: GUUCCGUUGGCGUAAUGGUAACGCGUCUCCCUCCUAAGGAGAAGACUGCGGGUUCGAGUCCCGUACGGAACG

- Variants of: B1
- Method notes: yeast fitness relative to wild type (ratio to wild type); higher = fitter; tRNA-Arg(CCU), competitive growth, 37 C, YPD
Fewer inactive variants are shown than the library holds.
Measurement type: yeast fitness
// return a plain number; no unit text

Look over these answered cases.
*Q* Supply recorded yeast fitness for C30A C61A A69C here.
*A* 0.609

*Q* Item A36C A40U C46A G68C : provide yeast fitness
*A* 0.584

*Q* Query yeast fitness for C4U U35G A65G
*A* 0.607

*Q* Retrieve yeast fitness measured for C33U C46U G68C and print it.
*A* 0.615

*Q* Using known records, supply yeast fitness for C22A C29A G44C
*A* 0.605

More entries:
*Q* Could you please provide reported yeast fitness for C27U G56C ? Thanks!
*A* 0.595
